Molecular target: MMP-2 (Homo sapiens)
Construct: purchased Oncogene Research Products (Calbiochem) PF023
Sequence (P08253 110-660): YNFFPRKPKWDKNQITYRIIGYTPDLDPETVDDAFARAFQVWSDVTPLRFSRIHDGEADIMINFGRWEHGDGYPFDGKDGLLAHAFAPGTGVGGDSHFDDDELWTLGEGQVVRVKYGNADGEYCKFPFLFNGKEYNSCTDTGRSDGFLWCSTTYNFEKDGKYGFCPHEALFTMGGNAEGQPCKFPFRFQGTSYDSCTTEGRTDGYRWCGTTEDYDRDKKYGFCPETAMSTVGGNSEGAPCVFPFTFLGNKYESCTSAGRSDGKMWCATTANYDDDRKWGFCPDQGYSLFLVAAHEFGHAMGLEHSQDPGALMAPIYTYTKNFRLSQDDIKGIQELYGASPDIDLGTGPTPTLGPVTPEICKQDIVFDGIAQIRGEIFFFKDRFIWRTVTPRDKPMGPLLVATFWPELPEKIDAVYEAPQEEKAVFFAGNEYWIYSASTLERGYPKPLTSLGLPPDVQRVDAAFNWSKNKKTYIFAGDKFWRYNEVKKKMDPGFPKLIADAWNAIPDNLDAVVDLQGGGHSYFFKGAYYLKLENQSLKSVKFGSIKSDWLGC
Test: In-vitro fluorescence assay of MMP-2 activity
Type: biochemical
Conditions: recombinant human MMP-2; read-out: MMP-2 IC50
Value Type: pIC50
Interpret pIC50 as the negative base-10 log of the concentration measured in mol/L.

Look over these answered cases.
pIC50 measured on Cc1cccc2oc(C(=O)Nc3ccc(-c4ccc(S(=O)(=O)N[C@H](C(=O)O)C(C)C)cc4)cc3)c(C)c12 = 5.94

pIC50 measured on Cc1cc(C(=O)Nc2ccc(-c3ccc(S(=O)(=O)N[C@H](C(=O)O)C(C)C)cc3)cc2)nn1-c1ccccc1 = 5.89

pIC50 measured on Cc1c(C(=O)Nc2ccc(-c3ccc(S(=O)(=O)N[C@H](C(=O)O)C(C)C)cc3)cc2)oc2cccc(C(C)O)c12 (stereo partly shown) = 5.68

pIC50 measured on COCCc1cccc2oc(C(=O)Nc3ccc(-c4ccc(S(=O)(=O)N[C@H](C(=O)O)C(C)C)cc4)cc3)c(C)c12 = 5.82

pIC50 measured on CC(C)[C@H](NS(=O)(=O)c1ccc(-c2ccc(NC(=O)c3nc4cc(Cl)ccc4s3)cc2)cc1)C(=O)O = 7.59

pIC50 measured on Cc1c(C(=O)Nc2ccc(-c3ccc(S(=O)(=O)N[C@H](C(=O)O)C(C)C)cc3)cc2)oc2cccc(C#N)c12 = 6.24

Others:
pIC50 measured on CNc1cccc2oc(C(=O)Nc3ccc(-c4ccc(S(=O)(=O)N[C@H](C(=O)O)C(C)C)cc4)cc3)c(C)c12 = 6.05

pIC50 measured on CC(=O)Nc1ccc2oc(C(=O)Nc3ccc(-c4ccc(S(=O)(=O)NC(C(=O)O)C(C)C)cc4)cc3)cc2c1 (stereo in doubt) = 8.40

pIC50 measured on Cc1c(C(=O)Nc2ccc(-c3ccc(S(=O)(=O)N[C@H](C(=O)O)C(C)C)cc3)cc2)oc2cccc(NS(C)(=O)=O)c12 = 5.65

pIC50 measured on COc1cccc2oc(C(=O)Nc3ccc(-c4ccc(S(=O)(=O)N[C@H](C(=O)O)C(C)C)cc4)cc3)cc12 = 7.80

pIC50 measured on Cc1c(C(=O)Nc2ccc(-c3ccc(S(=O)(=O)N[C@H](C(=O)O)C(C)C)cc3)cc2)oc2cccc(C(N)=O)c12 = 6.00

pIC50 measured on COc1ccc2oc(C(=O)Nc3ccc(-c4ccc(S(=O)(=O)N[C@H](C(=O)O)C(C)C)cc4)cc3)cc2c1 = 8.82

pIC50 measured on CC(C)[C@H](NS(=O)(=O)c1ccc(-c2ccc(NC(=O)c3csc(-c4ccncc4)n3)cc2)cc1)C(=O)O = 5.92
